# Tgt: HCV polymerase 1B (Δ21 NS5B, BK) (Hepatitis C virus genotype 1b)
# Construct: 20 to 50 nM Δ21 NS5B
# Sequence (P26663 2420-2989, stated change not applied): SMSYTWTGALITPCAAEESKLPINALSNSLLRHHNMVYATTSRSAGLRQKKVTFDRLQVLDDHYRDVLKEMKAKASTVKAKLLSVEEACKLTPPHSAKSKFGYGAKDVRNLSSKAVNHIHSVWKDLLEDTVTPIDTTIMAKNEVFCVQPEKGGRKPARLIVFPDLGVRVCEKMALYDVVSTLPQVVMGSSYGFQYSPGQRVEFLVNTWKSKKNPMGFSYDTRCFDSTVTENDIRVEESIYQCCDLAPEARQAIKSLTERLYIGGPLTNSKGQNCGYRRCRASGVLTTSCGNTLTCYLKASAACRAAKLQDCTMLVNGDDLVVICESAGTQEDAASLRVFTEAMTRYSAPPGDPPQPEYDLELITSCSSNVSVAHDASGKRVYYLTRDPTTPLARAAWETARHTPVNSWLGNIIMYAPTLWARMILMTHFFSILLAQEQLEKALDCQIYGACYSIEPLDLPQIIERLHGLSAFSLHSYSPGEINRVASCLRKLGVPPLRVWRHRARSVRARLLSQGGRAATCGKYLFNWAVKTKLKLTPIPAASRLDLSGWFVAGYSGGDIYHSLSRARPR
# Measurement Notes: biochemical
Assay Endpoint: IC50

COc1c(C(=O)Nc2scc(CNS(C)(=O)=O)c2S(N)(=O)=O)cc(N2CCC(=O)NC2=O)cc1C(C)(C)C on HCV polymerase 1B (Δ21 NS5B, BK) (Hepatitis C virus genotype 1b) gives IC50 = 10 to 100 nM

CC1CCCN(Cc2cc(N3CCC(=O)NC3=O)cc(C(C)(C)C)c2O)C1 (stereo not shown) on HCV polymerase 1B (Δ21 NS5B, BK) (Hepatitis C virus genotype 1b) gives IC50 = > 1000 nM

CC(C)(C)c1cc(N2CCC(=O)NC2=O)cc(NC(=O)c2ccc(N)cc2)c1O on HCV polymerase 1B (Δ21 NS5B, BK) (Hepatitis C virus genotype 1b) gives IC50 = > 1000 nM

CC(C)(C)c1cc(N2CCC(=O)NC2=O)cc(NC(=O)c2ccc(NS(C)(=O)=O)cc2)c1O on HCV polymerase 1B (Δ21 NS5B, BK) (Hepatitis C virus genotype 1b) gives IC50 = 100 to 1000 nM

COc1c(C(=O)Nc2ccc(C(C)=O)cc2)cc(N2CCC(=O)NC2=O)cc1C(C)(C)C on HCV polymerase 1B (Δ21 NS5B, BK) (Hepatitis C virus genotype 1b) gives IC50 = > 1000 nM
